B1: CPEB3 Ribozyme (parent)
chain: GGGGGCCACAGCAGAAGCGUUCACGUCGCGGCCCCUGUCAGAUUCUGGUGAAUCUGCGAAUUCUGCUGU

- Variants of: B1
- experimentDescription: self-cleavage, relative activity (ratio to wild type); higher = more cleavage; co-transcriptional
measure: self-cleavage
Answer using only a numeral; do not append any unit.

// query self-cleavage value for entry GGGGGCCACAGCAGAAGCGUUCACGUCGCGGCCCCUGUCAGAUUCUGUUGAAUCUGCGAAUUCUGCCGU
1

For the variant GGGGGCCACAGCAGAAGCGUUCACGUCGCGUCCCCUGUCAUAUUCUGGUGAAUCUGCGAAUUCUGCUGU , what self-cleavage is on record?
0.398

Which self-cleavage reading was recorded for the variant GGGGGCCACAGCAGAAGCGUUCACGUCGCGGCCCCUGUCAGAUCCUGGUGAAUCAGCGAAUUCUGCUGU ?
0.524

Given GGGGGGCACAGCAGAAGCGUUCACGUCGCGGCCCCUGUCAGAUUCUGGUGAAUCUGCAAAUUCUGCUGU , state its recorded self-cleavage.
0.2

What value of measured self-cleavage is listed for GGGGGCCACAGCAGAAGCGUUCACGUCGCGGCACCUGUCAGAUUCUGGUGAAUCUGCGAAUUGUGCUGU ?
0.513

Requested field: self-cleavage. Item: GGGGGCCACAGCAGAAGCGUUCACCUCACGGCCCCUGUCAGAUUCUGGUGAAUCUGCGAAUUCUGCUGU
0.14

Field request: self-cleavage | item: GGGGGCCACAGCAGAAGCGUUCACGUCGCGGCCCCUGUCAGAUUCUGGUGAAUCUUCGAAUACUGCUGU
0.654

Value lookup for self-cleavage; key = GGGGGUCACAGCAGAAGCGUUCACGUCGCGGCCCCUGUCAAAUUCUGGUGAAUCUGCGAAUUCUGCUGU
0.815

Quick check: self-cleavage of GGGGGCCACAGCAGAAGCGUUCACGUCGCGGCCCCUGUGAGAUUCUGGUGGAUCUGCGAAUUCUGCUGU ?
0.924

Recorded self-cleavage for GGGGGCCACAGCAGAAGCGUUCACGUCGCGCCCGCUGUCAGAUUCUGGUGAAUCUGCGAAUUCUGCUGU , please?
0.382

Need self-cleavage of GGGGGCCACAGCAGAAGCGUUCACGUCGCGGCCCCUGUCAGAUUCUGGGGAAUCUGCGAAUUCUGGUGU , thanks.
0.908

// query self-cleavage value for entry GGGGGCCCCAGCAGAAGCGUUCACGUCGCGGCCCCUGUCAGAUUCUGGUGAGUCUGCGAAUUCUGCUGU
0.974

What value of self-cleavage has been reported for the following variant? GGGGGCCACAGCAGAAGCGUUCACGUCGCGGCCCCUCUCAGAUUCUGGUGAAUCUGCGAAUUCUGCUGG
0.375

Would you kindly share the measured self-cleavage for GGGGGCCACAGCAGCAGCGUUCAUGUCGCGGCCCCUGUCAGAUUCUGGUGAAUCUGCGAAUUCUGCUGU ?
0.27

Tell me the measured self-cleavage of GGGGGCCACAGCAGAAGCGAUCACGUCGCGGCCCCUGUCAGAUUCUGGUGAAUCUGCGAAUUCUGCUCU , please.
0.253

// self-cleavage lookup, key: GGGUGCCACAGCAGUAGCGUUCACGUCGCGGCCCCUGUCAGAUUCUGGUGAAUCUGCGAAUUCUGCUGU
0.272

Entry under review: GGGGGCCCCAGCAGAAGCGUUCACGUCGCGGCCCCUGUUAGAUUCUGGUGAAUCUGCGAAUUCUGCUGU . Reported self-cleavage?
0.947

So what's the measured self-cleavage for this one? GGGGGCCACAGCAGAAGCGUUCACGUCGCGGCCCCUGUCAGAUUCUGGUGAAUCUGCGAAUUGUGCUGC
1.04

Any idea what self-cleavage was measured for GGGGGCCACAGCAGAAGCGUUCACGUCGCGGCCGCUGUAAGAUUCUGGUGAAUCUGCGAAUUCUGCUGU ?
0.394

Field request: self-cleavage | item: GGGGUCCACAGCAGAAGCGUUCACGUCGCGGCCCCUGUCAGAUUCUGGUGAAUCUGCGAAUUCUGAUGU
0.19

Requested field: self-cleavage. Item: GGGGGACUCAGCAGAAGCGUUCACGUCGCGGCCCCUGUCAGAUUCUGGUGAAUCUGCGAAUUCUGCUGU
0.607

Which self-cleavage is listed for GGGGGCCACAGCAGAAUCGUUCAUGUCGCGGCCCCUGUCAGAUUCUGGUGAAUCUGCGAAUUCUGCUGU ?
0.179

Return reported self-cleavage; argument: GGGGGUCACAGCAGAAGCGUUCACGUCGCGGCCCCUGUCAGAUUCUCGUGAAUCUGCGAAUUCUGCUGU
0.996

Name the recorded self-cleavage for GGGGGCCACAGCAGAAGCGUUCAGGUCGCGGCCCCGGUCAGAUUCUGGUGAAUCUGCGAAUUCUGCUGU .
0.146

self-cleavage lookup needed for GGGGGCCACAGCAGAUGCGUUCGCGUCGCGGCCCCUGUCAGAUUCUGGUGAAUCUGCGAAUUCUGCUGU , thanks.
0.528

// returns reported self-cleavage for input GGGGGCCACAGCAGAAGCGUUCACGUCGGGGCCCCUGUCAGAUUCUGGUGAAUCUGCGAAUUCGGCUGU
0.279

Look up self-cleavage for this variant: GGGGGCCACAGCAGAAGCGUGCACGUCGCGGCCCCUGUCAGAUUCUGGUGAAUCUUCGAAUUCUGCUGU
0.611

Reported self-cleavage for GGGGGCCACAGCAGAAGCGUUCACGUCGCGGCCCCUGUCAGAUUUUGGUGAAUCUGCGAAUUCGGCUGU : what is it?
0.854

Quick one: self-cleavage for GGGGGCCACAGCCGAAGCGUUCACGUCGCGGCCCCUGUCAGAUUCUGGUGAAUGUGCGAAUUCUGCUGU ?
0.45

What self-cleavage value was documented for this variant, GGGGGCGACAGCAGAAGCGUUCACGUCGCGGCCCCUGUCAGAUUCUGGUGACUCUGCGAAUUCUGCUGU ?
0.42

Data request, read-out self-cleavage, for GGUGGCCACAGCAGAAGCGUUCACGUCGCGGCCCCUGUCAGAUUCUGGUGAAUCCGCGAAUUCUGCUGU
0.104

Look at this variant and give its reported self-cleavage. GGGGGCCACAGCAGAAGCGUUCCCGUCGCGGCCCCUGUCAGAUUUUGGUGAAUCUGCGAAUUCUGCUGU
0.961

# lookup: self-cleavage of GGGGGCAACAGCAGAAGCGGUCACGUCGCGGCCCCUGUCAGAUUCUGGUGAAUCUGCGAAUUCUGCUGU
0.127

Please look up its self-cleavage: GGGGGCCACAGCAGAAGCGCUCACGUCGUGGCCCCUGUCAGAUUCUGGUGAAUCUGCGAAUUCUGCUGU
0.128

I'd like to know its self-cleavage. The variant in question is GGGGGCUACAGCAGAACCGUUCACGUCGCGGCCCCUGUCAGAUUCUGGUGAAUCUGCGAAUUCUGCUGU
0.122

Query: self-cleavage; subject: GGGGGCCACAGCUGAGGCGUUCACGUCGCGGCCCCUGUCAGAUUCUGGUGAAUCUGCGAAUUCUGCUGU
0.589

Query: self-cleavage; subject: GGGGGCCACAGCAGAAGCGUACACGUCGCGGCCCCUGUCAGAUUCUGGUGAAUCUGCGACUUCUGCUGU
0.29

Consider the variant shown here: GGGGGCCACAGCAGAAGCGUUCACGUCGCGGCCCCUGACAGAUUCUGGUGAACCUGCGAAUUCUGCUGU What is its recorded self-cleavage?
0.811

Using the record for GGGGGCCACAGCAGAAGCGUUCACGUCGCGGCCCCUGUCCGAUUCUGGUUAAUCUGCGAAUUCUGCUGU , report its self-cleavage.
0.55

Requested field: self-cleavage. Item: GGGGGCCACAGCAGAAGCGUUCACGUCGCGGCCCCUGUCAGAUUCUGAUGAAUCUGCGAAUUCGGCUGU
0.902

Requested field: self-cleavage. Item: GGGGGCCACAGCAGAAGCGUUCACGUCGCGGCCCCUGUCAGAUCCUGGUGAAUCUUCGAAUUCUGCUGU
0.388

Value lookup for self-cleavage; key = GGGGGCGACAGCAGAAGCGUUCACGUCGCGGCCCCUGUCAGAUUCUGGUGAAUCUGCGGAUUCUGCUGU
0.307

Quick one: self-cleavage of GGGGACCACGGCAGAAGCGUUCACGUCGCGGCCCCUGUCAGAUUCUGGUGAAUCUGCGAAUUCUGCUGU ?
0.915

Entry CGGGGCCACAGCAGAAGCGUUCACGUUGCGGCCCCUGUCAGAUUCUGGUGAAUCUGCGAAUUCUGCUGU : reported self-cleavage = ?
0.131

Value lookup for self-cleavage; key = GCGGGCCACAGCAGAAGCGUUCACGUCGCGGCCUCUGUCAGAUUCUGGUGAAUCUGCGAAUUCUGCUGU
0.0646

Which value of self-cleavage has been reported for GGGGGCCACAGCAGAAGCGUUCAAGUCGCGUCCCCUGUCAGAUUCUGGUGAAUCUGCGAAUUCUGCUGU in the records?
0.257
